What solubility at 24 h was measured for each of the following?
- EXPERIMENTAL_DETAILS: physchem
- EXPERIMENTAL_PARAMETERS: pH 7.4, aqueous buffer, kinetic from dmso stock, Solubility (pH 7.4)
Numbers only, in µg/mL.

COMPOUND | PROPERTY_NAME | OBSERVED_VALUE
CCNC(=O)Nc1nc2cc(-c3cnc(N4CCC(Cc5ccccc5)(C(=O)O)CC4)nc3)cc(-c3ccccn3)c2s1 [Compound 134] | solubility at 24 h | 100
CCNC(=O)Nc1nc2cc(-c3ccc(C4=NOC(C)(C(=O)OCC)C4)nc3)cc(-c3ccccn3)c2s1 (stereo not shown) [Compound 184] | solubility at 24 h | 6.25

Let us move to another entry and its solubility at 24 h.
The value of solubility at 24 h measured for the compound CCNC(=O)Nc1nc2cc(-c3cnc(N4CCC(C)(C(=O)O)CC4)nc3)ccc2s1 [Compound 46] turned out to be 100

---

What solubility at 24 h was measured for each of the following?
- EXPERIMENTAL_DETAILS: physchem
- EXPERIMENTAL_PARAMETERS: pH 7.4, aqueous buffer, kinetic from dmso stock, Solubility (pH 7.4)
Give bare numbers, in µg/mL.

SUBSTANCE_SMILES | UNIT_SPEC | solubility at 24 h
CCNC(=O)Nc1nc2cc(-c3cnc(N4CCC(C)(C(=O)O)CC4)nc3C)cc(-c3ccccn3)c2s1 | µg/mL | 400
CCNC(=O)Nc1nc2cc(-c3cnc(N4CCC(C)(C(=O)O)CC4)nc3)cc(-c3nccc(N(C)C)c3C#N)c2s1 | µg/mL | 6.25
CCCC1(C(=O)O)CCN(c2ncc(-c3cc(-c4ncccc4C#N)c4sc(NC(=O)NCC)nc4c3)cn2)CC1 | µg/mL | 100
CCNC(=O)Nc1nc2cc(-c3ccc(N4CCC(CC)(C(=O)O)CC4)nc3)cc(-c3ccccn3)c2s1 | µg/mL | 400
CCNC(=O)Nc1nc2cc(-c3cnc(N4CCC(C)(C(=O)O)CC4)nc3)cc(C#Cc3cncn3C)c2s1 | µg/mL | 400

For each entry beneath this line, provide reported solubility at 24 h.
1. CCNC(=O)Nc1nc2cc(-c3cnc(N4CCC(C)(C(=O)O)CC4)nc3)cc(-c3cnc(N(C)C)s3)c2s1
2. CCNC(=O)Nc1nc2cc(-c3cnc(N4CCC(O)(C(=O)O)CC4)nc3)cc(-c3ccccn3)c2s1

25
100

---

- EXPERIMENTAL_DETAILS: physchem
- EXPERIMENTAL_PARAMETERS: pH 7.4, aqueous buffer, kinetic from dmso stock, Solubility Range
What solubility at 24 h was measured for each of the following?

SUBSTANCE_SMILES | solubility at 24 h
CCNC(=O)Nc1nc2cc(-c3cnc(N4CCC(C)(C(=O)O)CC4)nc3)cc(-c3cnc(OCC)s3)c2s1 | 400 to 800 µg/mL

For each entry beneath this line, provide reported solubility at 24 h.
1. CCNC(=O)Nc1nc2cc(-c3cnc(N4CCC(C)(C(=O)O)CC4)nc3)cc(-c3ccccn3)c2s1
2. CCNC(=O)Nc1nc2cc(-c3cnc(N4CCC(CC)(C(=O)O)CC4)nc3)cc(-c3ncnc4[nH]ccc34)c2s1

> 800 µg/mL
> 800 µg/mL
